In this section we review reported CMV-LACZ in Myotubes, signal relative to DMSO values for a set of compounds.
tested on: β-galactosidase in CMV-LacZ C2C12 myotubes; assay: CMV-LacZ secondary screen in C2C12 myotubes (β-Gal stabilizing assay); type: cell-based, mouse; conditions: 40 uM; C2C12 CMV-LacZ myotubes; fold relative to DMSO
Number only, please.

Consider the reported CMV-LACZ in Myotubes, signal relative to DMSO for these compounds:
COMPOUND	ASSAY_RESULT
Cn1ccc(C(=O)Nc2cccnc2Cl)n1	0.9510
O=CN1CCN(C(=O)CC(c2ccccc2)c2cc(Br)ccc2O)CC1 (stereo not drawn)	1.0947
Cc1ccc(NCc2nnc(SCC(=O)Nc3nnc(C)s3)n2C)cc1	1.051
Cc1ccccc1OCC(=O)Nc1nnc(-c2ccco2)s1	0.9948

Challenge: So what's the measured CMV-LACZ in Myotubes, signal relative to DMSO for this one? CCOc1ccc2ccccc2c1C1NC(=O)N(C)C(C)=C1C(=O)OCCOC (stereo not drawn)
Response given: 0.9925

Challenge: Cool, now `CC(=O)Nc1ccc(NC(=O)C/C(C)=N/NC(=O)COc2cc(C)c(Br)cc2Br)cc1`
Response given: 1.2780

Challenge: Another compound to look at: CNC(=S)N1CCC(NC(=O)C(Cc2ccc(F)cc2)NC(C)=O)CC1 (stereo not drawn)
Response given: 0.9336

Challenge: Same question, `CCCNC(=S)N1CCC(NC(=O)c2ccc(OC)cc2)CC1` this time
Response given: 0.977

Challenge: Input `COc1cccc(CN2CCN(Cc3ccco3)CC2)c1.O=C(O)C(=O)O`
Response given: 1.0224

---

Entries and their CMV-LACZ in Myoblasts (β-galactosidase activity relative to DMSO) values follow.
tested on: β-galactosidase in CMV-LacZ C2C12 myoblasts; experiment: CMV-LacZ secondary screen in C2C12 myoblasts (β-Gal stabilizing assay); assay type: cell-based, mouse; settings: 5 uM; CMV-LacZ C2C12 myoblasts

Below, each entry is followed by its recorded CMV-LACZ in Myoblasts (β-galactosidase activity relative to DMSO) result.
COMPOUND	ASSAY_RESULT
CN1C(=O)N(CC(=O)N2CCN(S(=O)(=O)c3ccc(Cl)s3)CC2)C(=O)C12CCCCC2	0.9701
CC(O)CNc1nc2c(c(=O)n(Cc3ccc(Br)cc3)c(=O)n2C)n1C (centres unmarked)	1.0840

Challenge: Entry O=C(NCCc1ccc(Cl)cc1)C1CCCO1 (centres unmarked) has what CMV-LACZ in Myoblasts (β-galactosidase activity relative to DMSO)?
Response given: 1.2105

Challenge: Another compound to look at: CCC(=O)c1ccc(OCC(O)CN2CC(C)OC(C)C2)cc1.O=C(O)C(=O)O (centres unmarked)
Response given: 1.0865

Challenge: Try this compound next: `Cc1[nH]c2ccc(F)cc2c1CCN(Cc1ccco1)C(=S)NC(C)(C)C`
Response given: 0.9701

---

tested on: β-galactosidase in CMV-LacZ C2C12 myoblasts; test: CMV-LacZ secondary screen in C2C12 myoblasts (β-Gal stabilizing assay); format: cell-based, mouse; conditions: 20 uM; CMV-LacZ C2C12 myoblasts
CMV-LACZ in Myoblasts (β-galactosidase activity relative to DMSO) by entry:
// response body must contain only the number

The following molecules have reported results that may help.
MOLECULE	TEST_TARGET	ASSAY_RESULT
CCOC(=O)c1sc(=N)n(-c2ccc(OC)cc2)c1C	β-galactosidase in CMV-LacZ C2C12 myoblasts	0.6017
CCCn1c(-c2cc(OC)c(OC)c(OC)c2)nc2c1c(=O)[nH]c(=O)n2Cc1ccccc1	β-galactosidase in CMV-LacZ C2C12 myoblasts	0.4293
CC(=O)C1=C(C)Nc2ncnn2C1c1ccc(C)cc1 (stereo not shown)	β-galactosidase in CMV-LacZ C2C12 myoblasts	0.9846
COCCSc1ccccc1C(=O)Nc1cc(C)cc(C)c1	β-galactosidase in CMV-LacZ C2C12 myoblasts	0.8656
CC(C)Oc1cccc(C(=O)Nc2ccc(CN3CCOCC3)cc2)c1	β-galactosidase in CMV-LacZ C2C12 myoblasts	1.0467

Challenge: Need CMV-LACZ in Myoblasts (β-galactosidase activity relative to DMSO) of COc1cc(/C=C/CN2CCN(Cc3ccc(C)o3)C(CCO)C2)ccc1O (stereo not shown) , thanks.
Response given: 0.7996

Challenge: How about `CCCCN(CC)Cc1ccc(CNC(=S)Nc2ccccc2F)o1` ?
Response given: 0.9919

Challenge: How about `CCCCNc1nnc(Cc2ccc(Cl)cc2)c(=O)[nH]1` ?
Response given: 0.8196

Challenge: Cool, now `O=C(Nc1cc(-c2nc3ccccc3s2)ccc1Cl)c1ccc2c(c1)OCO2`
Response given: 1.1095

Challenge: Entry to check: `CCCc1nnc(SCC(=O)NC2CCCC2)n1CCOC`
Response given: 0.7859

Challenge: Follow-up item: `Cc1nnc(SCC(=O)c2ccc(Br)cc2)s1`
Response given: 0.9807

Challenge: And the next one, `O=C(c1ccccc1)N1CCN(S(=O)(=O)c2cccs2)CC1` ?
Response given: 1.3585

Challenge: What do you have for `Cc1ccsc1CN(C)CC(=O)Nc1ccc([N+](=O)[O-])cc1Cl` ?
Response given: 0.9285

Challenge: Next molecule: `Cc1ccc(C(=O)N2CCN(S(=O)(=O)N3CCOCC3)CC2)cc1`
Response given: 0.9211

Challenge: Thanks! And O=CN1CCN(C(=O)CC(c2ccccc2)c2cc(Br)ccc2O)CC1 (stereo not shown) ?
Response given: 1.0556

Challenge: Could you do the same for `O=C(CCc1ccccc1)c1nnc(-c2ccccc2)o1` , please?
Response given: 1.0263

Challenge: Now try `Cc1[nH]c(=O)[nH]c(=O)c1S(=O)(=O)Nc1ccc(F)cc1Cl` .
Response given: 0.9363

Challenge: Repeat with `COc1ccc(NC(=O)C2(N(C(=O)Cn3nnnc3N)c3ccc(OC)cc3)CCCCC2)cc1`
Response given: 0.7467

Challenge: Let us now turn to `O=C(N/N=C/c1c[nH]c2ccccc12)c1cc(Cl)ccc1O`
Response given: 1.0767

Challenge: Continue with CCC(C)n1[nH]c(=O)cc1N (stereo not shown)
Response given: 0.9491

Challenge: Please answer likewise for `COc1cccc(C(=O)COc2ccc3ccc(=O)oc3c2)c1`
Response given: 1.0763
